Cited source for all entries: ChEMBL document CHEMBL1201862

test system: 786-0; assay: NCI tumour cell line growth inhibition, 48 h
The source made the active and inactive calls. Rule as the data show it: active = GI50 up to about 1.1 µM and inactive = higher.
test-readout: GI50

// query Identify measured GI50 corresponding to `Cn1c2ccccc2n2c(=O)c3c(c(C#N)c12)CCCC3`
// result > 100 µM (inactive)

// query Identify measured GI50 corresponding to `Cc1nc2cc(/N=N/c3c(O)ccc4ccccc34)ccc2[nH]1`
// result 22 µM (inactive)

// query Identify measured GI50 corresponding to `COc1cc(C)cc(C(=O)OCc2ccccc2)c1C1=C(Cl)C(=O)C(Cl)=CC1=O`
// result > 5.71 µM (inactive)

// query Identify measured GI50 corresponding to `Clc1c(C(Cl)(Cl)Cl)nsc1N1CCCCC1`
// result 17.9 µM (inactive)

// query Identify measured GI50 corresponding to COc1cc2c(cc1O)C1Cc3ccc(OC)c(O)c3C(C2)N1C (stereo unspecified)
// result > 100 µM (inactive)

// query Identify measured GI50 corresponding to `Sc1nc2c(c(-c3nc(S)nc4c3CCCCCCCCCC4)n1)CCCCCCCCCC2`
// result > 100 µM (inactive)

* * *

Task for the reader: assign each of the following compounds its reported GI50.
tested on: OVCAR-3; experiment: NCI tumour cell line growth inhibition, 48 h
Calls of active or inactive are those of the source. Rule as the data show it: active = GI50 up to about 1.1 µM and inactive = higher. Where a SMILES comes first, the peptide text is derived from it. [ ]: non-standard residue; d: D form. The star is where a group is joined. Chg = N[CH](C(=O)O)C1CCCCC1; Cbz = O=C(OCc1ccccc1)*; OBn = c1ccc(CO*)cc1

// query Identify measured GI50 corresponding to `CSC(=S)Nc1cc(C)ccn1`
// result 40.6 µM (inactive)

// query Identify measured GI50 corresponding to CCOC(=O)C1=C(C)N(Cc2ccccc2)C(=O)C1CC#N (stereo not drawn)
// result > 100 µM (inactive)

// query Identify measured GI50 corresponding to CC(=O)OC(C)(C)CCC(=O)[C@](C)(O)[C@H]1[C@H](O)C[C@@]2(C)[C@@H]3CC=C4C(C)=C(OC5OC(CO)C(O)C(O)C5O)C(=O)C[C@@H]4[C@]3(C)C(=O)C[C@]12C (stereo partly drawn)
// result > 100 µM (inactive)

// query Identify measured GI50 corresponding to `O=C(O)COc1ccc(C(=O)/C(SS/C(C(=O)c2ccc(OCC(=O)O)c(Cl)c2Cl)=C2\C=C(c3ccc(Br)cc3)SS2)=C2/C=C(c3ccc(Br)cc3)SS2)c(Cl)c1Cl`
// result 3.73 µM (inactive)

// query Identify measured GI50 corresponding to `CCOC(=O)Cn1c(=O)c2nc(SC)sc2n(-c2ccccc2)c1=S`
// result 26.6 µM (inactive)

// query Identify measured GI50 corresponding to COc1cc2c(cc1OC)C1C(O)C(OC)C(Br)C3(Br)CCN(C2)C13 (stereo not drawn)
// result > 100 µM (inactive)

// query Identify measured GI50 corresponding to O=C1CC(Sc2nc3ccc(I)cc3c(=O)n2Cc2ccccc2)C(=O)NN1 (stereo not drawn)
// result 16 µM (inactive)

// query Identify measured GI50 corresponding to COC(=O)C(NC(=O)C(CC(=O)OCc1ccccc1)NC(=O)OCc1ccccc1)C1CCCCC1 (stereo not drawn) (Cbz-Asp(OBn)-[Chg]-OMe; configuration not given here)
// result > 100 µM (inactive)

* * *

system: UO-31; assay: NCI tumour cell line growth inhibition, 48 h
The source made the active and inactive calls. No stated cut-off is given here; in the data, active = GI50 up to about 1.1 µM and inactive = higher.
Permitted responses: active, inactive

// query In this assay, the call recorded for CC1CC/C(=C\c2ccc(F)cc2)C2=C1C(c1ccc(F)cc1)NC(=S)N2 (stereo unspecified) was what?
// result inactive

// query In this assay, the call recorded for `CC(C)c1ccc(Cc2ccc(C(C)C)c(NC(=O)C(=O)Cc3cnc4ccccc4n3)c2C(C)C)c(C(C)C)c1NC(=O)C(=O)Cc1cnc2ccccc2n1` was what?
// result inactive

// query In this assay, the call recorded for `CC(C)(C)N/N=C(/Cc1nc2c3c(ccc2nc1O)C(=O)c1ccccc1C3=O)C(=O)NC1=C(Cl)C(=O)c2ccccc2C1=O` was what?
// result inactive

// query In this assay, the call recorded for `O=c1c2ccccc2nc(-c2cc3c(cc2Cl)Sc2nccn2S3(=O)=O)n1-c1ccccc1` was what?
// result inactive

// query In this assay, the call recorded for `N#C/C(=C\c1cc(F)cc(F)c1)c1ccccn1` was what?
// result inactive

// query In this assay, the call recorded for `COc1cc([N+](=O)[O-])ccc1NC1=CC(=O)CCC1` was what?
// result inactive

// query In this assay, the call recorded for `O=c1[nH]c(=S)[nH]n1C(=S)n1[nH]c(=S)[nH]c1=O` was what?
// result inactive

// query In this assay, the call recorded for `CCOC(=O)c1cnc(-n2[nH]c3c(c2=O)CCCC3)[nH]c1=O` was what?
// result inactive

// query In this assay, the call recorded for `COc1cc(/C=C(\C#N)c2nc3ccccc3o2)ccc1O` was what?
// result inactive

// query In this assay, the call recorded for Nc1ccccc1[S+]([O-])c1ccccc1 (stereo unspecified) was what?
// result inactive

// query In this assay, the call recorded for `Cc1c(-c2ccccc2)[nH]n(C2=NCCN2)c1=O` was what?
// result inactive

// query In this assay, the call recorded for `Cn1c(=O)c2c(nc(C[N+]3([O-])CCOCC3)n2C)n(C)c1=O` was what?
// result inactive

// query In this assay, the call recorded for `O=C1Nc2ccccc2/C1=N/Nc1ccccc1Cl` was what?
// result inactive

// query In this assay, the call recorded for CC1=C2C(=CC(C)(CO)C2O)C(=O)C(C)(O)C12CC2 (stereo unspecified) was what?
// result active

// query In this assay, the call recorded for `CC1=C(NC(=O)C(=O)NNC(=O)c2ccncc2)C(=O)c2ccccc2C1=O` was what?
// result inactive

// query In this assay, the call recorded for OCC(O)C(OC1OC(CO)C(O)C(O)C1O)c1nn(-c2ccc(Cl)cc2)c2nc3cc(Cl)ccc3nc12 (stereo unspecified) was what?
// result inactive

// query In this assay, the call recorded for CC(C)(C)c1ccc(O)c(C(O)c2ccncc2)c1 (stereo unspecified) was what?
// result inactive

// query In this assay, the call recorded for C=C1C(=O)O[C@H]2C1C[C@H](O)[C@@]1(C)OC1CC[C@@]1(C)O[C@H]21 (stereo partly specified) was what?
// result inactive

// query In this assay, the call recorded for CC(=O)OC12CC[N+]3(C)CCCCC3C1=Nc1ccccc12 (stereo unspecified) was what?
// result inactive

// query In this assay, the call recorded for CC(C)C(C/C=C1\CC(CO)(COC(=O)c2ccccc2)OC1=O)C(C)C (stereo unspecified) was what?
// result inactive

// query In this assay, the call recorded for `O=[N+]([O-])C(=C(NCc1ccccc1)NCc1ccccc1)C(Cl)=C(Cl)Cl` was what?
// result inactive

* * *

Task for the reader: assign each of the following molecules its reported GI50.
system: UO-31; assay: NCI tumour cell line growth inhibition, 48 h
Calls of active or inactive are those of the source. No stated cut-off is given here; in the data, active = GI50 up to about 1.1 µM and inactive = higher.

// query Identify measured GI50 corresponding to CC1=NNC(=O)C2CCC(=O)N12 (centres undefined)
// result > 100 µM (inactive)

// query Identify measured GI50 corresponding to `COC(=O)NC12CC3CC(CC(F)(C3)C1)C2`
// result > 100 µM (inactive)

// query Identify measured GI50 corresponding to `Cc1cc(C)c(O)c(Cc2cccc(Cc3cc(C)cc(C)c3O)c2O)c1`
// result > 100 µM (inactive)

// query Identify measured GI50 corresponding to `C/C(=C\c1ccccc1)C(=O)c1c(C)cc(C)cc1C`
// result > 100 µM (inactive)

// query Identify measured GI50 corresponding to O=c1c2ccccc2nc(-c2ccccc2Cl)n1NCC1(O)OCC(O)C(O)C1O (centres undefined)
// result > 100 µM (inactive)

// query Identify measured GI50 corresponding to `COc1ccc(CCc2ccccc2CC(=O)O)cc1`
// result > 100 µM (inactive)

// query Identify measured GI50 corresponding to `COc1cccc2c1-c1c(OC)cccc1SS2`
// result 22.8 µM (inactive)

// query Identify measured GI50 corresponding to `COc1ccc(/C=C2\N/C(=N/N)N=C2Cl)cc1`
// result > 100 µM (inactive)

// query Identify measured GI50 corresponding to `Cc1cc2oc(-c3ccccc3)c(C)c(=O)c2c2c1OC(C)(C)S2`
// result > 100 µM (inactive)

// query Identify measured GI50 corresponding to `Cc1nc2cc(/N=N/c3c(O)ccc4ccccc34)ccc2[nH]1`
// result 45.1 µM (inactive)

// query Identify measured GI50 corresponding to `COc1ccc2ccccc2c1/C=C/C(=O)c1ccccc1`
// result 2.82 µM (inactive)

// query Identify measured GI50 corresponding to `CN(C)Cc1cc(C(=O)/C=C/c2ccc(Cl)cc2Cl)cc(CN(C)C)c1O`
// result 2.07 µM (inactive)

// query Identify measured GI50 corresponding to `Nc1ccc(Nc2nc(F)nc(-c3c4ccccc4c4n3CCS4)n2)cc1`
// result 8.38 µM (inactive)

// query Identify measured GI50 corresponding to `O=C(NN=C1CCN(Cc2ccccc2)CC1)C(O)(c1ccccc1)c1ccccc1`
// result > 100 µM (inactive)

// query Identify measured GI50 corresponding to `O=C(NCCCCCCCCNC(=O)c1cccc2ccccc12)c1cccc2ccccc12`
// result 6.3 µM (inactive)

// query Identify measured GI50 corresponding to `Cc1cc(C)c2c(c1)CN1CN2Cc2cc(C)cc(C)c21`
// result 24.4 µM (inactive)

// query Identify measured GI50 corresponding to `Cc1ccccc1C(=O)N/N=C/c1ccc(Sc2nccn2C)c([N+](=O)[O-])c1`
// result > 100 µM (inactive)

// query Identify measured GI50 corresponding to `O=c1[nH]nc(Cc2ccccc2)n1O`
// result > 100 µM (inactive)

// query Identify measured GI50 corresponding to `Cc1cccc2nc3n(c12)C(=O)c1ccccc1-3`
// result > 100 µM (inactive)
